Sourced from patent US20230287125A1

- Experimental system: T1, human PD-L1-his tag protein (human, UniProt Q9NZQ7 19-238)
- T1 construct: also called human PD-L1-His protein; recombinant PD-L1 protein; not shown: his tag
- T1 sequence (Q9NZQ7 19-238 limits assumed): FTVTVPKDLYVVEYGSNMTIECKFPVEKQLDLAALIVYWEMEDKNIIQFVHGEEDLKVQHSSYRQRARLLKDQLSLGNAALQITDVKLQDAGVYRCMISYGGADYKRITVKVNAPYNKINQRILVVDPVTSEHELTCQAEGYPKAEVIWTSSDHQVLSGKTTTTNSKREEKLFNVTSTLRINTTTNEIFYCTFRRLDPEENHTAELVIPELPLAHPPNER
- Test summary: SPR (Biacore), affinity ranking, PDL1-His
Readout label: kon (M⁻¹ s⁻¹)
Numbers only here, please. The scale is M⁻¹ s⁻¹.

>>> reported("Hu89C10H8-8 (antibody, V domains shown, humanized) VH: EVQLVESGGGLVKPGGSLRLSCAASGFTFSNYWMTWIRQAPGKGLEWVASITNTGSSTFYPDSVKGRFTISRDNAKSSLYLQMNSLRAEDTAVYYCTRDTTIAPFDYWGQGTMVTVSS VL: DIQMTQSPSSLSASVGDRVTITCKASQNLNEYLNWYQQKPGKAPKRLIYKTNTLQAGIPSRFSGSGSGTDYTLTISSLQPEDFATYYCSQYNSGNTFGQGTKLEIK")
655000

The binder identified as Hu89C10H8-15 (antibody, V domains shown, humanized) VH: EVQLVESGGGLVKPGGSLRLSCAASGFTFSNYWMTWIRQAPGKGLEWVASITNTGSSTFYPDSVKGRFTISRDNAKNSLYLQMNSLRAEDTAVYYCTRDTTIAPFDYWGQGTMVTVSS VL: DIQMTQSPSSLSASVGDRVTITCKASQNLNEYLNWYQQKLGEAPKRLIYKTNTLQAGIPSRFSGSGSGIDYTLTISSLQPEDFATYFCSQYNSGNTFGQGTKLEIK registered its kon at 781000

For Hu67F3G7-3 (antibody, V domains shown, humanized) VH: EVQLVQSGAEVKKPGASVKVSCKASGYIFTDFWVSWVRQAPGQGLEWIGEIYPNSGVSRYNEKFKGRVTMTVDKSISTAYMELSRLRSDDTAVYYCTKYFGYTYWFGYWGQGTLVTVSS VL: DIQMTQSPSSLSASVGDRVTITCRASKSVSTYMHWYQQKPGKAPKLLIYSASHLESGVPSRFSGSGSGTDFTLTISSLQPEDFATYYCQQSNELPVTFGGGTKVEIK the binder record lists kon as 2.8e+06
